Values compiled from paper PMC9143880.

Listed here: items and their measured log k’w.
- Procedure details: RP-UHPLC lipophilicity parameter log k’w
- Assay type: physicochemical
- Conditions used: RP-UHPLC, acetonitrile/water, log k extrapolated to 0% acetonitrile
Just the number, please, no unit after it.

Solved cases (8 shown):
> print(dat)
                                   compound  value.measured
1  O=C(Nc1nc(-c2ccccc2)cs1)c1cnc2ccccc2n1 [Compound 19a]           3.583
2  O=C(Nc1nc(-c2ccccc2)cs1)c1ccncc1 [Compound 13a]           2.190
3  Cc1cc(C(=O)Nc2nc(-c3ccccc3)co2)cc(Cl)n1 [Compound 16b]           2.251
4                     O=C(Nc1nccs1)c1ccccn1           1.857
5  O=C(Nc1nc(-c2ccccc2)cs1)c1ccccn1 [Compound 11a]           3.102
6  O=C(Nc1nc(-c2ccccc2)co1)c1ccccn1 [Compound 11b]           2.038
7              Cc1cc(C(=O)Nc2nccs2)cc(Cl)n1           2.319
8  Cc1cncc(C(=O)Nc2nc(-c3ccccc3)co2)c1 [Compound 14b]           1.478

# input Which log k’w is listed for O=C(Nc1nc(-c2ccccc2)cs1)c1cccnc1 [Compound 12a] ?
# output 2.131

# input Now the same for O=C(Nc1nccs1)c1ccncc1
# output 1.306

----------
- Test system: Aspergillus flavus CCM 8363
- Procedure details: Antifungal microdilution broth (EUCAST)
- Conditions used: Aspergillus flavus, CCM8363, 24 h, read-out: MIC AFla
Experimental readout: MIC

> print(dat)
                                   compound  value.measured
1  O=C(Nc1nc(-c2ccccc2)cs1)c1cnc2ccccc2n1 [Compound 19a]        > 125 µM
2  O=C(Nc1nc(-c2ccccc2)co1)c1ccnc(Cl)c1 [Compound 15b]        > 500 µM
3  Cc1cc(C(=O)Nc2nc(-c3ccccc3)cs2)cc(Cl)n1 [Compound 16a]        > 125 µM
4                     O=C(Nc1ncco1)c1cnccn1        > 500 µM
5  O=C(Nc1nc(-c2ccccc2)cs1)c1cccnc1 [Compound 12a]        > 125 µM
6                  Cc1cc(C(=O)Nc2ncco2)ccn1        > 125 µM
7  O=C(Nc1nc(-c2ccccc2)co1)c1ccccc1 [Compound 20b]          500 µM
8                 O=C(Nc1ncco1)c1ccnc(Cl)c1          500 µM

# input What reported MIC corresponds to Cc1cc(C(=O)Nc2nccs2)cc(Cl)n1 on Aspergillus flavus CCM 8363?
# output > 125 µM

# input Next up: O=C(Nc1nc(-c2ccccc2)cs1)c1ccccn1 [Compound 11a]
# output > 500 µM

# input Would you kindly repeat that for O=C(Nc1ncco1)c1cccnc1 ?
# output > 500 µM

# input Cool, now O=C(Nc1nc(-c2ccccc2)co1)c1cnc2ccccc2n1 [Compound 19b]
# output > 125 µM

----------
- Tested on: M. aurum DSM 43999 (ATCC 23366)
- Procedure details: Antimycobacterial MIC, microdilution broth / resazurin
- Assay type: cell-based
- Conditions used: Mycolicibacterium aurum, 72 h, read-out: MIC M. aurum
Each entry below lists one item and its recorded MIC value.
Quick reminder: number only, in µg/mL, skip the unit.

In the examples that follow, each entry is paired with its recorded MIC.
> print(dat)
                                   compound  value.measured
1  O=C(Nc1nc(-c2ccccc2)co1)c1ccncc1 [Compound 13b]            31.2
2  O=C(Nc1nc(-c2ccccc2)co1)c1ccnc(Cl)c1 [Compound 15b]            7.81
3                 O=C(Nc1ncco1)c1ccnc(Cl)c1            3.12
4  O=C(Nc1ncco1)c1cnc2ccccc2n1 [Compound 10b]            15.6
5                     O=C(Nc1ncco1)c1cnccn1            31.2

# input Entry O=C(Nc1ncco1)c1ccncc1 : reported MIC = ?
# output 15.6

# input What do you have for NNC(=O)c1ccncc1 [INH, isoniazid, reference compound] ?
# output 3.91
